Task for the reader: assign each of the following molecules its reported bioavailability.
- experiment.notes: Oral bioavailability in Sprague-Dawley rat at 10 mg/kg, po
- Type: ADME, organism-based
- recorded.conditions: in vivo
Your answer is read as %, so omit the unit and give the number.

Qu. Which bioavailability is reported for this molecule? `O=C(C[C@@H](NS(=O)(=O)c1cccc(C(F)(F)F)c1)c1ccc(F)cc1)N[C@@H]1CCOc2cc(CN3CCCCC3)ccc21`
Ans. 13

Qu. Which bioavailability is reported for this molecule? `COCCNCc1ccc2c(c1)OCC[C@H]2NC(=O)C[C@@H](NS(=O)(=O)c1cccc(C(F)(F)F)c1)c1ccc(F)cc1`
Ans. 49

Qu. Which bioavailability is reported for this molecule? `O=C(C[C@@H](NS(=O)(=O)c1cccc(C(F)(F)F)c1)c1ccc(F)cc1)N[C@@H]1CCOc2cc(CN3CCCC3)ccc21`
Ans. 41
